Consider the following compounds and their measured affinity increase (binding enhanced), mutant vs wild type readings.
Molecular target: DRD2 F1103.28A (Homo sapiens, UniProt P14416, F110A)
Sequence (P14416 whole entry F110A): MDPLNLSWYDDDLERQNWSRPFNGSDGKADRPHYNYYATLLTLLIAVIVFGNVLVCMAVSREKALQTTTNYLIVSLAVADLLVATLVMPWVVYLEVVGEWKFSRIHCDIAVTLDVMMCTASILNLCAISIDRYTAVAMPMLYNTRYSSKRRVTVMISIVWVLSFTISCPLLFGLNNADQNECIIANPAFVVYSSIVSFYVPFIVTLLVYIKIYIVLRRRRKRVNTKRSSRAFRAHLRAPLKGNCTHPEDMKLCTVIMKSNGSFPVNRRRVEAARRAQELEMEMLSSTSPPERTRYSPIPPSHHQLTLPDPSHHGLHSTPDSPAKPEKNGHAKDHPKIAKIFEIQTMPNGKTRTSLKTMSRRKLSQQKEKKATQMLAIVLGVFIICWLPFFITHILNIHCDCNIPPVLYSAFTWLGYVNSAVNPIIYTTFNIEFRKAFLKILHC
Type: binding
Parameters: expressed in transfected cells; host or cells: HEK293T (ATCC CRL-11268)
Settings: DRD2 Phe110^3.28Ala vs wild-type DRD2
outcomeMeasure: affinity increase (binding enhanced), mutant vs wild type

[
  {
    "compound": "CCOc1cccc2cc(C(C)NCC3(O)CCCCC3)oc12 (centres unmarked)",
    "recordedMeasurement": "2.64 fold"
  },
  {
    "compound": "CCOc1cccc2cc(C(C)NCC3(O)CCCCCC3)oc12 (centres unmarked)",
    "recordedMeasurement": "7.52 fold"
  },
  {
    "compound": "CCOc1cccc2cc(C(C)NCC3(O)CCCCCCC3)oc12 (centres unmarked)",
    "recordedMeasurement": "8.47 fold"
  },
  {
    "compound": "CCOc1cccc2cc(C(C)NCC3(O)CCCC3)oc12.Cl (racemic)",
    "recordedMeasurement": "10.27 fold"
  },
  {
    "compound": "OC1(c2ccc(Cl)cc2)CCN(Cc2c[nH]c3ccccc23)CC1",
    "recordedMeasurement": "144.18 fold"
  }
]

----------
Biological target: DRD2 F1103.28A (Homo sapiens, UniProt P14416, F110A)
Format: binding
Design: expressed in transfected cells; host or cells: HEK293T (ATCC CRL-11268)
Conditions: DRD2 F1103.28A; read-out: Ki
pKi: −log10 of the molar value.
Consider the following molecules and their measured pKi readings.

[
  {
    "molecule": "CCCOc1cccc2cc(C(C)NCC3(O)CCCCC3)oc12.Cl (stereo not drawn)",
    "experimentalSystem": "DRD2 F1103.28A (Homo sapiens, UniProt P14416, F110A)",
    "pKi": 6.17
  },
  {
    "molecule": "CCOc1cccc2cc(C(C)NCC(C)(C)O)oc12 (racemic)",
    "experimentalSystem": "DRD2 F1103.28A (Homo sapiens, UniProt P14416, F110A)",
    "pKi": "< 5.00"
  },
  {
    "molecule": "CCOc1cccc2cc(C(C)NCC3(O)CC3)oc12.Cl (racemic)",
    "experimentalSystem": "DRD2 F1103.28A (Homo sapiens, UniProt P14416, F110A)",
    "pKi": "< 5.00"
  }
]

----------
Molecular target: DRD2 (D2 long receptor) wild-type (Homo sapiens, UniProt P14416)
Sequence (P14416 whole entry): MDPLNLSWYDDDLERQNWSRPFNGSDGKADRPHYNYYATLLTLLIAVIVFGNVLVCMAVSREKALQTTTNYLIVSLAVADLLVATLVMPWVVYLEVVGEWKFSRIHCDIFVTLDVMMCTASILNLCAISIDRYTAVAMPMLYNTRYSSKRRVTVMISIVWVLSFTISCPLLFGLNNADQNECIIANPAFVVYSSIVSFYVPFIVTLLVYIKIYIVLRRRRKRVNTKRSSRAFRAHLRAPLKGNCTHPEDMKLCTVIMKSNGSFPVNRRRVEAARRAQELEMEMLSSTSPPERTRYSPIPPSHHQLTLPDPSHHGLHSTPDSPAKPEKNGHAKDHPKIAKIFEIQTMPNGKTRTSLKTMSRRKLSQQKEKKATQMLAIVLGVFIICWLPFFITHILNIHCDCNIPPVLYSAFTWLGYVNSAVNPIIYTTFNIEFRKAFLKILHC
Assay: Radioligand competition binding, [3H]-N-methylspiperone, HEK293T membranes
Conditions: DRD2; [3H]-methylspiperone (0.8-1.0 nM); read-out: Ki
pKi: −log10 of the molar value.
Consider the following compounds and their measured pKi readings.

[
  {
    "compound": "CCOc1cccc2cc(C(C)NCC3(O)CCCC3)oc12.Cl (racemic)",
    "censoringQualifier": "=",
    "pKi": 5.02
  },
  {
    "compound": "CCCCN(C)C(C)C(=O)Nc1cc([N+](=O)[O-])ccc1OC (stereo not shown)",
    "censoringQualifier": "=",
    "pKi": 5.42
  },
  {
    "compound": "CCOc1cccc2cc(C(C)NCc3ccccc3)oc12.Cl (stereo not shown)",
    "censoringQualifier": "<",
    "pKi": 5.00
  },
  {
    "compound": "CCOc1cccc2cc([C@@H](C)NCC3(O)CCCCC3)oc12",
    "censoringQualifier": "=",
    "pKi": 6.16
  },
  {
    "compound": "CCOc1cccc2cc(C(C)NCCO)oc12 (stereo not shown)",
    "censoringQualifier": "<",
    "pKi": 5.00
  },
  {
    "compound": "CCCOc1cccc2cc(C(C)NCC3(O)CCCCC3)oc12.Cl (stereo not shown)",
    "censoringQualifier": "=",
    "pKi": 5.60
  },
  {
    "compound": "CCCCOc1cccc2cc(C(C)NCC3(O)CCCCC3)oc12.Cl (stereo not shown)",
    "censoringQualifier": "=",
    "pKi": 5.69
  },
  {
    "compound": "CCOc1cccc2cc([C@H](C)NCC3(O)CCCCC3)oc12",
    "censoringQualifier": "=",
    "pKi": 5.34
  },
  {
    "compound": "CC(NCC1(O)CCCCC1)c1cc2cccc(O)c2o1.Cl (stereo not shown)",
    "censoringQualifier": "<",
    "pKi": 5.00
  },
  {
    "compound": "CC(NCC1(O)CCCCC1)c1cc2ccccc2o1.Cl (stereo not shown)",
    "censoringQualifier": "<",
    "pKi": 5.00
  }
]

Cited source for all entries: paper PMC7044277
